System: PPARg homodimer (NR concentration 180 nM)
Test: PBM binding z-score (relative to random genomic background probes); higher = stronger binding; sequences stand for … in GC…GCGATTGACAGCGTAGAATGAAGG
QUANTITY KIND: PBM binding z-score
Answers are plain numbers.

                        sequence_data                                       tgt        quantity_kind  meas_value
0  TCGAGTAGGTTAGAGGCATTCAGAATGGCGTCGA  PPARg homodimer (NR concentration 180 nM)  PBM binding z-score       0.087
1  CGTCAAAGTGCAACTAAGGTAACGTAAAGCACGC  PPARg homodimer (NR concentration 180 nM)  PBM binding z-score      0.0705
2  ACTATTAGTTGAGACGAGGGCAACAGATAGGTTG  PPARg homodimer (NR concentration 180 nM)  PBM binding z-score       0.704
3  TGTCAAAGTTCAAAGGTAACGTAGGTATCCACAC  PPARg homodimer (NR concentration 180 nM)  PBM binding z-score        2.88

Please supply PBM binding z-score for each of the following items, keeping them in order.
1. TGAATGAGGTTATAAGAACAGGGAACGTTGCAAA
2. AGTCAAAGTTCATCTAGGTAACGTACGATATGCT
3. CAAACTAGATCAAGGTCAAAGTCGGTTTGTGCCA
4. TTACCAAGGTGAGCTAAGGTCGTTGATCCAACTC
5. CCTTATGGGTCACGAGGTTATAGCACGACGAGCG
6. CGAACGAGGGCATGAGTTGAAAGCAAATGCCGAT

Result block:
1: 0.709; 2: 2.4; 3: 1.73; 4: 0.0568; 5: 3.76; 6: 0.0525
